Recorded AC50, one value per entry.
# testedOn: Sodium-dependent noradrenaline transporter (Homo sapiens, UniProt P23975)
# Sequence (P23975 whole entry): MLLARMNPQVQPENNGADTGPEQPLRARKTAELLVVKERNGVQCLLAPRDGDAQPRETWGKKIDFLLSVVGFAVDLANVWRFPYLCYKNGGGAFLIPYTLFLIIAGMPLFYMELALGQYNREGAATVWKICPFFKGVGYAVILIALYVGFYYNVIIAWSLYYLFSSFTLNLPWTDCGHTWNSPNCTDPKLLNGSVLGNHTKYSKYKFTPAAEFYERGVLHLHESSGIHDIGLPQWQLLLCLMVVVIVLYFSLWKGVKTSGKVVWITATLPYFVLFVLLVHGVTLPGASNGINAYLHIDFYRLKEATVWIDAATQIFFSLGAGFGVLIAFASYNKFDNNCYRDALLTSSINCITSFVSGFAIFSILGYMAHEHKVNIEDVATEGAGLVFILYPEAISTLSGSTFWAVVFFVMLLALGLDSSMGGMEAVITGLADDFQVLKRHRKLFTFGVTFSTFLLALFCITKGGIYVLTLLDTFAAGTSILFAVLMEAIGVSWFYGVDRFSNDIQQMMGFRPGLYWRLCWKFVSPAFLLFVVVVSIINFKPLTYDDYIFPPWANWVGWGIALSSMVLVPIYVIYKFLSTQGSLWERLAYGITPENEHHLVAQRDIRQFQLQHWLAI
propertyMeasured: AC50

{"compound": "CC(C)C(=O)Nc1ccc([N+](=O)[O-])c(C(F)(F)F)c1 [FLUTAMIDE]", "result": "> 30 µM"}
{"compound": "CCO[C@@H](Cc1ccc(OCCn2c(C)ccc2-c2ccc(SC)cc2)cc1)C(=O)O", "result": "24.5 µM"}
{"compound": "CC(=O)OC[C@H]1O[C@@H](n2ccc(=O)[nH]c2=O)[C@H](OC(C)=O)[C@@H]1OC(C)=O [URIDINE TRIACETATE]", "result": "> 30 µM"}
{"compound": "O=C(Cn1ccnc1[N+](=O)[O-])NCc1ccccc1", "result": "> 30 µM"}
{"compound": "CC1(C)O[C@@H]2C[C@H]3[C@@H]4C[C@H](F)C5=CC(=O)CC[C@]5(C)[C@H]4[C@@H](O)C[C@]3(C)[C@]2(C(=O)CO)O1 [FLURANDRENOLIDE]", "result": "> 30 µM"}
{"compound": "O=C1CN=C(c2ccccc2)c2c(sc3c2CCCC3)N1", "result": "> 30 µM"}
{"compound": "COc1ccc(-c2cc(=O)c3c(O)cc(O[C@@H]4O[C@H](CO[C@@H]5O[C@@H](C)[C@H](O)[C@@H](O)[C@H]5O)[C@@H](O)[C@H](O)[C@H]4O)cc3o2)cc1O", "result": "> 30 µM"}
{"compound": "COc1ccc2c(c1)OC(C)(C)C(c1ccccc1)C2c1ccc(OCCN2CCCC2)cc1 (stereo unspecified)", "result": "4.9 µM"}
{"compound": "CCOC(=O)CC(SP(=S)(OC)OC)C(=O)OCC (stereo unspecified)", "result": "> 30 µM"}
{"compound": "C[C@@H]1C[C@H]2[C@@H]3CCC4=CC(=O)C=C[C@]4(C)[C@@]3(F)[C@@H](O)C[C@]2(C)[C@H]1C(=O)CO", "result": "> 30 µM"}
{"compound": "Nc1ccc(/N=N/c2ccccc2)c(N)n1", "result": "3.85 µM"}
{"compound": "C[C@@H]1O[C@@H](OC[C@H]2O[C@@H](Oc3c(-c4ccc(OCCO)c(OCCO)c4)oc4cc(OCCO)cc(O)c4c3=O)[C@H](O)[C@@H](O)[C@@H]2O)[C@H](O)[C@H](O)[C@H]1O", "result": "> 30 µM"}
{"compound": "Nc1nc(N)c2nc(-c3ccccc3)c(N)nc2n1", "result": "16.1 µM"}
{"compound": "O=C(O)CCn1c2c(c3ccccc31)C[C@H](NS(=O)(=O)c1ccc(F)cc1)CC2", "result": "> 30 µM"}
{"compound": "CCS(=O)(=O)N1CC(CC#N)(n2cc(-c3ncnc4[nH]ccc34)cn2)C1", "result": "> 30 µM"}
{"compound": "Sc1ncnc2nc[nH]c12 [MERCAPTOPURINE ANHYDROUS]", "result": "> 30 µM"}

---

# testedOn: Thromboxane A2 receptor (Homo sapiens, UniProt P21731)
# Sequence (P21731 whole entry): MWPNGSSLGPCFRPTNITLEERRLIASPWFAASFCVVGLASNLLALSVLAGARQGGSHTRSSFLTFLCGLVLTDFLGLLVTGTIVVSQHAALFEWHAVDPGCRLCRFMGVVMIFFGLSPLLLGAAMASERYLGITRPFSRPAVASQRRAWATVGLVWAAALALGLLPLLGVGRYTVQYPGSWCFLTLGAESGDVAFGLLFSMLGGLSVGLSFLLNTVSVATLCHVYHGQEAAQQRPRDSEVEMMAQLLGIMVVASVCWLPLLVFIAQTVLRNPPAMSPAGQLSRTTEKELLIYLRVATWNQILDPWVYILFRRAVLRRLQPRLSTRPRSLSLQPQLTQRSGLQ
# Format: functional, cell-based

{"compound": "CN(C)C(=O)Oc1ccc[n+](C)c1", "AC50": "> 30 µM"}
{"compound": "COCC1=C(C(=O)OC(C)OC(=O)OC(C)C)N2C(=O)[C@@H](NC(=O)/C(=N\\OC)c3csc(N)n3)[C@H]2SC1 (stereo partly drawn)", "AC50": "> 30 µM"}
{"compound": "C[C@H]1O[C@H](O[C@H]2[C@H](O)[C@@H](O)[C@@H](O[C@H]3[C@H](O)[C@@H](O)C(O)O[C@@H]3CO)O[C@@H]2CO)[C@H](O)[C@@H](O)[C@@H]1N[C@H]1C=C(CO)[C@@H](O)[C@H](O)[C@H]1O (stereo partly drawn)", "AC50": "> 30 µM"}
